Data origin: patent US11840686B2

tested on: human PKK mRNA; assay: Antisense inhibition of human PKK mRNA in HepaRG cells, 3,000 nM (Example 1); type: cell-based; conditions: Table 2; PKK mRNA, HepaRG cells, 3,000 nM, electroporation, ~24 h, relative to untreated control cells
Strand notation (5' to 3'): a small letter for the sugar, then the base; units joined by * are phosphorothioate-linked, units joined directly phosphodiester-linked; [ ] holds rarer units or linkages, { } end groups; capitals alone tell only the bases. e = 2'-O-(2-methoxyethyl) (MOE); [5mC] = 5-methylcytosine; d = 2'-deoxy (DNA)
Label 1.0 when % inhibition >= 50%; otherwise 0.0.

Query: Dear colleague, could you confirm whether 531029 (antisense eA*eG*eT*eG*eT*dA*dA*dT*dT*d[5mC]*dA*dA*dA*dG*dG*eA*eG*e[5mC]*e[5mC]*eT) [compound 531029] has % inhibition at or above 50%?
Result: 1.0

Query: Dear colleague, could you confirm whether 531081 (eT*eG*eG*eT*eT*dT*dT*dT*dG*dG*dA*dA*dT*dT*d[5mC]*eT*eG*eA*eA*eA; antisense) [compound 531081] has % inhibition at or above 50%?
Result: 0.0

Query: Dear colleague, could you confirm whether 531015 (eT*eA*eT*eG*eA*dG*dT*dG*dA*d[5mC]*d[5mC]*d[5mC]*dT*d[5mC]*d[5mC]*eA*e[5mC]*eA*e[5mC]*eA; antisense) [compound 531015] has % inhibition at or above 50%?
Result: 1.0

Query: Dear colleague, could you confirm whether 531042 (antisense eT*eT*eA*e[5mC]*e[5mC]*dA*dA*dA*dG*dG*dA*dA*dT*dA*dT*eT*eT*eA*e[5mC]*e[5mC]) [compound 531042] has % inhibition at or above 50%?
Result: 0.0

Query: Dear colleague, could you confirm whether 531017 (eA*e[5mC]*eT*eG*eG*dT*dG*dT*d[5mC]*d[5mC]*dT*dA*dT*dG*dA*eG*eT*eG*eA*e[5mC]; antisense) [compound 531017] has % inhibition at or above 50%?
Result: 0.0

Query: Dear colleague, could you confirm whether 531038 (antisense e[5mC]*eA*eA*e[5mC]*eA*dG*dT*dT*dG*dG*dT*dA*dT*dA*dA*eA*eT*eT*eG*eT) [compound 531038] has % inhibition at or above 50%?
Result: 0.0

Query: Dear colleague, could you confirm whether 531009 (eT*eT*eT*eG*eT*dT*d[5mC]*d[5mC]*dT*d[5mC]*d[5mC]*dA*dA*d[5mC]*dA*eA*eT*eG*e[5mC]*eG; antisense) [compound 531009] has % inhibition at or above 50%?
Result: 1.0

Query: Dear colleague, could you confirm whether 531024 (eT*eT*eT*eA*eT*dT*dT*dG*dT*dG*dA*dG*dA*dA*dA*eG*eG*eT*eG*eT; antisense) [compound 531024] has % inhibition at or above 50%?
Result: 1.0

Query: Dear colleague, could you confirm whether 531016 (eT*eG*eT*e[5mC]*e[5mC]*dT*dA*dT*dG*dA*dG*dT*dG*dA*d[5mC]*e[5mC]*e[5mC]*eT*e[5mC]*e[5mC]; antisense) [compound 531016] has % inhibition at or above 50%?
Result: 0.0
